Form field: Signaling Assay, hMerTK without Gas6, pSTAT1 IC50 (nM) (one value per entry).
- tested.system: T1, Human MerTK on hMerTK-expressing cells (human, UniProt Q12866 21-999)
- T1 sequence: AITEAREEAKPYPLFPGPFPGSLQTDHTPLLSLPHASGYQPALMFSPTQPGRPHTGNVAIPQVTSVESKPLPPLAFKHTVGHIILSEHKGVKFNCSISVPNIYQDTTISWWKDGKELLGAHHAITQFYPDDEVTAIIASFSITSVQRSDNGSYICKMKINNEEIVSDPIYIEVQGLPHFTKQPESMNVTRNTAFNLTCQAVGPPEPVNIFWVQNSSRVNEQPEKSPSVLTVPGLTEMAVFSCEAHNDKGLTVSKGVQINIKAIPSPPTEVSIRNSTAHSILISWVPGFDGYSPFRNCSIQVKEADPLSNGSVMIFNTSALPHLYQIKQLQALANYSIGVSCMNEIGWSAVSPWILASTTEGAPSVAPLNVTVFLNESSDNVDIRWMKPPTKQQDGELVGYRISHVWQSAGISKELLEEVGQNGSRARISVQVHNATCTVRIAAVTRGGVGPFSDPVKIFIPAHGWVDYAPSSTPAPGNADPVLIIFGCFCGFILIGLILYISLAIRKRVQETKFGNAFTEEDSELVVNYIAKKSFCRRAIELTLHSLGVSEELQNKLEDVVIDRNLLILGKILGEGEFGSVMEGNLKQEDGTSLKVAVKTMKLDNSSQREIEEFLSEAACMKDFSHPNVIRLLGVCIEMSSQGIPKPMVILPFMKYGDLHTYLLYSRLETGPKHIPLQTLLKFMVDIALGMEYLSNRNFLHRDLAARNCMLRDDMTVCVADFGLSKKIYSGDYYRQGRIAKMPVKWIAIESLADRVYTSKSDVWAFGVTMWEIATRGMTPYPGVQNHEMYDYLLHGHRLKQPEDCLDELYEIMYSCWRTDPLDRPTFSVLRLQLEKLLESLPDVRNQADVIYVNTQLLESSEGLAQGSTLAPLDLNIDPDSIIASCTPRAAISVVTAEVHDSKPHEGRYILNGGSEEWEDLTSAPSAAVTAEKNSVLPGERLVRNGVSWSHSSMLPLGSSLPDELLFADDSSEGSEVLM
- test.details: cell-based or functional assay

binder="HuMAb 10K11 (antibody, human IgG1, kappa, V domains shown, Human anti-hMerTK mAb, Bin 1) VH: QLQLQESGPGLVKPSETLSLTCAVSGYSISSDYSWGWIRQPPGKGLEWIGSIYHSGNTYFNPSLKSRVTISVDTSKNQFSLKLSSVTAADTAVYYCARDKSYYFGPGSMDVWGQGTTVTVSS VL: AIQLTQSPSSLSASVGDRVTITCRASQGISSALAWYQQKPGKAPKLLIYDASSLESGVPSRFSGSGSGTDFTLTISSLQPEDFATYYCQQFKSYLTFGQGTRLEIKR" observed="> 100 nM"

Consider the additional binder presented here.
Query string: Query (binder): MoMAb 2D9 (antibody, V domains shown, Mouse mAb; Bin 2) VH: QVQLKESGPGLVAPSQSLSITCTVSGISLSSFAISWVRQPPGKGLEWLGVIWTGGGTDYNSALKSRLTISKDTSKNQVFLKMNSLQTDDTARYYCASHWYLDVWGTGTTVTVSS VL: QAVVTQESALTTSPGETVTLTCRSSTGAVSTSNYANWVQEKPDHLFTGLIGGANSRAPGIPARFSGSLIGDKAALTITGAQTEDEAIYFCALWFSNHWVFGGGTKLTVL ; field requested: Signaling Assay, hMerTK without Gas6, pSTAT1 IC50 (nM)
Result string: > 100 nM

Where these numbers come from: patent US20210395392A1
